growth inhibition values by entry
- TEST: NCI Yeast Anticancer Drug Screen. Data for the rad50 strain (AID 155);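 further: 0% = growth of vehicle-only cultures of the same strain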
- SETTINGS: S. cerevisiae rad50 strain growth inhibition; at 50.0 µM; stronger effect = higher value
- Method: Growth inhibition of yeast strains with defined genetic alterations is measured as a screen for potential anti-cancer activity. Selected strains with alterations in DNA damage repair or cell cycle control were exposed to compounds and growth inhibition was measured relative to vehicle treated controls. The strain used in this assay is rad50
This is part of a sample that, as a whole, favours compounds with a hit. Of some 79,000 tested, about 15% had one in any assay.
The answer is to be given in %; state only the numeric part.

Requested field: growth inhibition. Item: `CCN(CC)c1ccc(/C=N\NC(=S)N/N=C/c2ccc(N(CC)CC)cc2)cc1`
-2.3

Reported growth inhibition for `O=C(O)c1ccc(Nc2nc3ccccc3nc2C(=O)O)cc1` : what is it?
-19.2

Can you share its growth inhibition? I mean this compound: `c1ccc2c(c1)CCN2CCN1CCc2ccccc21`
9.4

Can you look up the measured growth inhibition of CC1OC(c2ccc(Cl)cc2)OC1C (stereo unspecified) for me?
16.4

What measured growth inhibition goes with `O=C1OCC/C1=C\c1ccc(Br)cc1` ?
7.2

Continuing:
What value of growth inhibition has been recorded for this entry: `O=[N+]([O-])c1cccc(N=Cc2ccc(Cl)cc2)c1`
-29.9
